All figures here come from PubChem BioAssay (NCI).

System: SF-268 CNS
Protocol notes: NCI-60 one-dose screen, 48 h
Study conditions: 10 µM unless noted
This is part of a sample that, as a whole, favours compounds with a hit. Of some 83,000 tested, about 20% had one in any assay. Activity calls are given as the source filed them. The calls were made as follows: active = growth percent below 10; inactive = the rest.
Choose the fitting class; nothing outside active, inactive is accepted.

Illustrative cases are given below, each with its answer.
Compound	Answer label
Nc1cc2c([nH]c[n+]2CC#CCCl)c(SCC#CCCl)n1	active
COc1cc(-c2nn(-c3cccc(NC(=O)Nc4ccc(Cl)c(C(F)(F)F)c4)c3)cc2-c2ccncc2)ccc1Cl	inactive
COc1ccc2[nH]c(=O)c3c4ccccc4cn3c2c1	active
CN(C)c1oc(C2OC2c2ccccc2)nc1C#N (configuration not stated)	inactive
COc1cccc(CC(C)=C(c2ccc(OCCN(C)C)cc2)c2ccc(OCCN(C)C)cc2)c1	active

Input line: Hello, I am checking results. What call was entered for `O=C(Nc1cccc(-n2cc(-c3ccncc3)c(-c3ccc(Cl)c(O)c3)n2)c1)Nc1cccc(C(F)(F)F)c1` ?
Output line: inactive

Input line: State the result this test recorded for `Cn1ncc2c(Sc3ccc(Cl)cc3)ncnc21` .
Output line: inactive

Input line: Per the records of this test, what outcome belongs to `CC(=O)Nc1scc[n+]1Cc1ccccc1` ?
Output line: inactive

Input line: Check the results log: what was the call for `Cc1ccc(Nc2nnc(-c3ccc(Cl)cc3)o2)c(C)c1` ?
Output line: inactive

----------
System: SN12C renal
Protocol notes: NCI-60 one-dose screen, 48 h (100 = growth as untreated, 0 = no growth, -100 = all killed)
Study conditions: 10 µM unless noted
About 83,000 compounds went through this panel and 20% of them were active in at least one assay; those are over-represented in the sample as a whole.
# reported growth; entries follow
Give the value in % but do not write % after it.

COc1cc(/C=C/C(=O)/C=C/c2cc(OC)c3c(c2)OCO3)cc2c1OCO2 85.4

Input line: # get_value(readout= growth, system= SN12C renal) for `C=C(C)[C@@H]1C[C@@H]2Cc3cc(F)ccc3N1O2`
Output line: 98.6

Input line: Item `O=C(Nc1ccncc1)C(=O)c1cn(S(=O)(=O)c2ccc(Br)cc2)c2ccccc12` with SN12C renal - growth?
Output line: 46.3

Input line: Which measured growth belongs to `COc1ccncc1S(=O)(=O)NC(=O)Nc1ccc(Cl)c(Cl)c1` , tested on SN12C renal?
Output line: 94.5

Input line: Under SN12C renal: growth value of `CCCCCCCCN(CCCCCCCC)CCCCCCNc1cc(OC)cc2cccnc12` ?
Output line: 63.4

----------
A collection of compounds and their measured growth
System: NCI-H522 lung
Protocol notes: NCI-60 one-dose screen, 48 h (100 = growth as untreated, 0 = no growth, -100 = all killed)
Study conditions: 10 µM unless noted
About 83,000 compounds went through this panel and 20% of them were active in at least one assay; those are over-represented in the sample as a whole.
State the answer as a number, implicitly in %.

Compound	Test system	growth / %
COc1cccc(-c2cc3c(O)cc(C#N)cc3[nH]2)c1	NCI-H522 lung	80.2
CC(C)(C)n1cc(-c2ccnc(NCCCNS(=O)(=O)c3ccccc3)c2)c(-c2cccc(O)c2)n1	NCI-H522 lung	45

Input line: growth lookup needed for `CC(=O)Oc1cccc(S(=O)(=O)n2cc(C(=O)C(=O)Nc3ccncc3)c3ccccc32)c1` , thanks.
Output line: 63.9

Input line: Form field: reported growth of COc1ccc(C2C=C(c3ccc(OC)c(OC)c3)N=C3SC=C(C)N32)c(Br)c1 (centres undefined)
Output line: 96.7

Input line: growth for Cn1c(=O)c2[nH]c(C3CC=CCC3)nc2n(C)c1=O (centres undefined) ?
Output line: 98

Input line: Look up growth: `COc1ccc(CNCCCN2C(=O)c3ccc4c5c(ccc(c35)C2=O)C(=O)N(CCCNCCCCNCCCN)C4=O)c(OC)c1OC`
Output line: 1.57

Input line: Suppose we examine the compound `C=C1C(=O)O[C@H]2[C@H]1CC/C(Cn1cc(-c3cccc(Cl)c3)nn1)=C\CC[C@@]1(C)O[C@@H]21` ; what growth value has been reported?
Output line: -74.4

Input line: Given `O=C(/C=C/c1cc(-c2ccc3c(c2)OCO3)n[nH]1)c1ccc2c(c1)OCO2` , state its recorded growth.
Output line: 72

Input line: Could you share which growth value was measured for `O=[N+]([O-])c1cccc(-c2nc3sccn3c2-c2ccnc(NCCCNS(=O)(=O)c3ccc(Cl)cc3)n2)c1` ?
Output line: 28.4
